Each recorded value in this set is attributed to patent US9309236B2.

Assay text: in vitro
Assay type: in vitro ADME
Particulars: human, microsomes
Endpoint name: half-life
Please give the number followed by its unit.

Given the entry COc1ccc(-c2sc(NC3CCCCC3)nc2C)cc1S(=O)(=O)Nc1ccc(Cl)cc1F.O=C(O)C(F)(F)F , report its measured half-life.
17.7 min

For COc1ccc(-c2sc(NC(C)C)nc2C)cc1S(=O)(=O)Nc1ccc(O)cc1 , what is its reported half-life?
24.2 min

Endpoint output: half-life of COc1ccc(-c2sc(NC(=O)NC(C)(C)C)nc2C)cc1S(=O)(=O)Nc1ccc(O)cc1 . Value?
28.7 min

State the recorded half-life for this entry: COc1ccc(-c2sc(NC(=O)C3CCCC3)nc2C)cc1S(=O)(=O)Nc1cnc(F)cc1C
28.8 min

Look up half-life: COc1ccc(-c2sc(NC(=O)C3CCOCC3)nc2C)cc1S(=O)(=O)Nc1ccc(O)cc1
46.5 min

Which measured half-life value corresponds to COc1ccc(-c2sc(NC3CCCCC3)nc2C)cc1S(=O)(=O)Nc1ccc(Cl)cc1.O=C(O)C(F)(F)F ?
17.6 min

Which measured half-life value corresponds to COc1ccc(-c2sc(NC(=O)C3CCCC3)nc2C)cc1S(=O)(=O)NC1CCNC(C)C1.O=C(O)C(F)(F)F (centres unmarked) ?
158 min

What value of measured half-life is listed for COc1ccc(-c2sc(NC3CCCCC3)nc2C)cc1S(=O)(=O)Nc1ccc(C)nc1.O=C(O)C(F)(F)F ?
21.9 min
